molecular target: SfurOBP11 (Sogatella furcifera, UniProt V5T6E3); assay: biochemical; format: binding; conditions: ligand concentration 18, replicate 3
Sequence (V5T6E3 entry or part of it): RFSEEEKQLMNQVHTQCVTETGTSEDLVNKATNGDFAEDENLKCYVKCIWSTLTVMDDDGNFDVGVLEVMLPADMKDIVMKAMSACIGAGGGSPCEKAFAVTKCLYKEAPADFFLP
measurementName: Fluorescence intensity, fluorescence competitive binding assay, OBP11

// solved cases for Fluorescence intensity, fluorescence competitive binding assay, OBP11 follow
CCCCCC=O | 21178
C/C(=C\CO)CCC[C@H](C)CCC[C@H](C)CCCC(C)C | 25306
CCCCCC(C)=O | 20300
OC1CCCCC1 | 23748
CCCCCCCCCCCCO | 19199

Pending compound:
Kindly note the recorded Fluorescence intensity, fluorescence competitive binding assay, OBP11 for C=C(C)C1CC=C(C)CC1 (single isomer, unassigned; (+)) [(+)-limonene] , which is 18287
